- system under test: Endonuclease 4 (Escherichia coli (strain K12))
- measurement description: Counterscreen for APE1 Inhibitors: qHTS Validation Assay for Inhibitors of Endonuclease IV (AID 1708)
- recorded conditions: E. coli endonuclease IV, DNA cleavage fluorescence; series mostly up to 57.1 µM
Results filed as inconclusive are left out. Activity calls are given as the source filed them. Calls follow the shape of the dose curve; as a rule, active = well fitted inhibition curve with a large enough effect; inconclusive = small, poorly fitted or top-dose-only effect; inactive = no such curve, though single readings can be large or run the other way.
Return exactly one item of yes = active, no = inactive

| compound | class name |
| --- | --- |
| CC[C@@H](CO)NC(=O)[C@H]1C=C2c3cccc4c3c(cn4C)C[C@H]2N(C)C1 | no |

Request: In this assay, the call recorded for COc1cc(C[C@@H](C)N)c(OC)cc1I was what?
Result: no

Source of measurements: PubChem BioAssay (NCATS)
